What 50% plaque number-reducing activity was measured for each of the following?
MEASURED_TARGET: envelope glycoprotein B (gB) of HSV-1 strain KOS (HSV-1 strain KOS, UniProt P06437 31-904)
EXPERIMENT: cell-based or functional assay
One number for each entry, in nM.

BINDER: antibody D48 scFv-hFc (Fc fusion, not shown: a dimerising Fc or GST) scFv: EVQLVETGGGVVRPGRSLRLSCTTSGFSFSGSAMHWVRQAPGKGLEWVAVISHDGNIIQYHDSVKGRFTISRDNSKNVLLLQMNSLRVDDTAMYYCARDVWLLPATISYAFDFWGQGTMVTVSSASTGGGGSGGGGSGGGGSVIWMTQSPPSLSASIGDTVTITCRASQGISNSIAWYQRRPGKAPELLVYAAYRLQSGVPSRLSGSGSGAEYTLTIKNMQPEDFATYYCQQYYDNPLTFGGGTKVEIK
UNIT_NAME: nM
50% plaque number-reducing activity: 1

BINDER: antibody D48 Fab (Fab, V domains shown, not shown: small tags and cut ends; a dimerising Fc or GST) VH: EVQLVETGGGVVRPGRSLRLSCTTSGFSFSGSAMHWVRQAPGKGLEWVAVISHDGNIIQYHDSVKGRFTISRDNSKNVLLLQMNSLRVDDTAMYYCARDVWLLPATISYAFDFWGQGTMVTVSS VL: VIWMTQSPPSLSASIGDTVTITCRASQGISNSIAWYQRRPGKAPELLVYAAYRLQSGVPSRLSGSGSGAEYTLTIKNMQPEDFATYYCQQYYDNPLTFGGGTKVEIK
UNIT_NAME: nM
50% plaque number-reducing activity: 2.7

BINDER: antibody D48 human-murine chimeric IgG2a (antibody, V domains shown, not shown: a dimerising Fc or GST) VH: EVQLVETGGGVVRPGRSLRLSCTTSGFSFSGSAMHWVRQAPGKGLEWVAVISHDGNIIQYHDSVKGRFTISRDNSKNVLLLQMNSLRVDDTAMYYCARDVWLLPATISYAFDFWGQGTMVTVSS VL: VIWMTQSPPSLSASIGDTVTITCRASQGISNSIAWYQRRPGKAPELLVYAAYRLQSGVPSRLSGSGSGAEYTLTIKNMQPEDFATYYCQQYYDNPLTFGGGTKVEIK
UNIT_NAME: nM
50% plaque number-reducing activity: 1.9

Report 50% plaque number-reducing activity for antibody D48 human-guinea pig chimeric IgG2κ (antibody, V domains shown) VH: EVQLVETGGGVVRPGRSLRLSCTTSGFSFSGSAMHWVRQAPGKGLEWVAVISHDGNIIQYHDSVKGRFTISRDNSKNVLLLQMNSLRVDDTAMYYCARDVWLLPATISYAFDFWGQGTMVTVSS VL: VIWMTQSPPSLSASIGDTVTITCRASQGISNSIAWYQRRPGKAPELLVYAAYRLQSGVPSRLSGSGSGAEYTLTIKNMQPEDFATYYCQQYYDNPLTFGGGTKVEIK please.
0.94
